So I've got a bunch of molecules here, and I need their MEAN CORPUSCULAR VOLUME values.
- Species on record: Rattus norvegicus
- test-details: DrugMatrix - Regimen: Daily Repeat
- Type: toxicity, organism-based, Sprague-Dawley
- Design: regimen Daily Repeat, gender Male, age 6-8 weeks
- condition-info: in vivo, po, 0 mg/kg, 120 h, tissue Blood, route oral GAVAGE, dose level Control, time 5 day, […]
The reply should contain only the number, in fL.

Data point: CC#C[C@]1(O)CC[C@H]2[C@@H]3CCC4=CC(=O)CCC4=C3[C@@H](c3ccc(N(C)C)cc3)C[C@@]21C [MIFEPRISTONE] ; MEAN CORPUSCULAR VOLUME = 63.32

Data point: CS(=O)(=O)c1ccc(C2=C(c3ccccc3)C(=O)OC2)cc1 [ROFECOXIB] ; MEAN CORPUSCULAR VOLUME = 62.87

Data point: CC(C)(c1ccc(O)cc1)c1ccc(O)cc1 [BISPHENOL A] ; MEAN CORPUSCULAR VOLUME = 63.3

Data point: CCC(C)(C)C(=O)O[C@H]1C[C@@H](C)C=C2C=C[C@H](C)[C@H](CC[C@@H]3C[C@@H](O)CC(=O)O3)[C@H]21 [SIMVASTATIN] ; MEAN CORPUSCULAR VOLUME = 63.32

Data point: Oc1ncnc2[nH]ncc12 [ALLOPURINOL] ; MEAN CORPUSCULAR VOLUME = 61.97

Data point: COc1ccccc1OCCNCC(O)COc1cccc2[nH]c3ccccc3c12 (stereo not drawn) [CARVEDILOL] ; MEAN CORPUSCULAR VOLUME = 63.08

Data point: COC(=O)Nc1nc2ccc(C(=O)c3ccccc3)cc2[nH]1 [MEBENDAZOLE] ; MEAN CORPUSCULAR VOLUME = 63.08

Data point: CO[C@H]1O[C@@H]2O[C@@]3(C)CC[C@H]4[C@H](C)CC[C@@H]([C@H]1C)[C@@]24OO3 ; MEAN CORPUSCULAR VOLUME = 61.45

Data point: CCOC(=O)C1=C(C)NC(C)=C(C(=O)OCC)C1c1ccccc1/C=C/C(=O)OC(C)(C)C [LACIDIPINE] ; MEAN CORPUSCULAR VOLUME = 61.03

Data point: c1ccc2c(c1)Nc1ccccc1S2 [PHENOTHIAZINE] ; MEAN CORPUSCULAR VOLUME = 62.87

Data point: Cc1cccc(C)c1NC(=O)C(C)N (stereo not drawn) [TOCAINIDE] ; MEAN CORPUSCULAR VOLUME = 64.93

Data point: O=C(Nc1ccc(Cl)c(Cl)c1)c1cc(Cl)cc(Cl)c1O [3,3',4',5-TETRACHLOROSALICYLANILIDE] ; MEAN CORPUSCULAR VOLUME = 63.52

Data point: O=C(O)COC(=O)Cc1ccccc1Nc1c(Cl)cccc1Cl [ACECLOFENAC] ; MEAN CORPUSCULAR VOLUME = 63.08

====

- Species: Rattus norvegicus
- test-details: DrugMatrix - Regimen: Daily Repeat
- Type: toxicity, organism-based, Sprague-Dawley
- Design: regimen Daily Repeat, gender Male, age 6-8 weeks
- condition-info: in vivo, po, 0 mg/kg, 72 h, tissue Blood, route oral GAVAGE, dose level Control, time 3 day, vehicle .5 % CMC
So I've got a bunch of compounds here, and I need their ERYTHROCYTE COUNT values.
Field note: include the unit after the figure.

Data point: CCN1CCCC1CNC(=O)c1cc(S(N)(=O)=O)ccc1OC (stereo unspecified) [SULPIRIDE] ; ERYTHROCYTE COUNT = 5.76 x10E6/uL

Data point: CC(=O)Nc1ccc2c(c1)Cc1ccccc1-2 [2-ACETYLAMINOFLUORENE] ; ERYTHROCYTE COUNT = 5.56 x10E6/uL

Data point: NC(=O)NC(=O)Cc1ccccc1 [PHENACEMIDE] ; ERYTHROCYTE COUNT = 5.53 x10E6/uL

Data point: CCN1CCN(c2cc3c(cc2F)c(=O)c(C(=O)O)cn3C2CC2)CC1 [ENROFLOXACIN] ; ERYTHROCYTE COUNT = 6.43 x10E6/uL

Data point: CCOc1cc(N)c(Cl)cc1C(=O)NCC1CN(Cc2ccc(F)cc2)CCO1 (stereo unspecified) [MOSAPRIDE] ; ERYTHROCYTE COUNT = 5.56 x10E6/uL

Data point: CCN(CC)CCNC(=O)c1cc(Cl)c(N)cc1OC [METOCLOPRAMIDE] ; ERYTHROCYTE COUNT = 6.43 x10E6/uL

Data point: NCC(CC(=O)O)c1ccc(Cl)cc1 (stereo unspecified) [BACLOFEN] ; ERYTHROCYTE COUNT = 5.56 x10E6/uL

Data point: Cl.NC[C@H]1CC[C@H](C(=O)Oc2ccc(CCC(=O)O)cc2)CC1 [CETRAXATE HYDROCHLORIDE] ; ERYTHROCYTE COUNT = 5.38 x10E6/uL

Data point: COc1cc(/C=C/C(=O)O)ccc1O [FERULATE] ; ERYTHROCYTE COUNT = 5.38 x10E6/uL

Data point: CCN1C[C@]2(COC)[C@H](O)C[C@H](OC)[C@@]34[C@@H]5C[C@@]6(O)[C@H](OC(=O)c7ccccc7)[C@@H]5[C@@](OC(C)=O)([C@@H]([C@H](OC)[C@H]23)[C@@H]14)[C@@H](O)[C@@H]6OC [ACONITINE] ; ERYTHROCYTE COUNT = 7.15 x10E6/uL

Data point: CC(C)NCC(O)COc1ccc(CC(N)=O)cc1 (stereo unspecified) [ATENOLOL] ; ERYTHROCYTE COUNT = 6.2 x10E6/uL

Data point: CN(C)CCC=C1c2ccccc2COc2ccccc21 [DOXEPIN] ; ERYTHROCYTE COUNT = 6.2 x10E6/uL

Data point: NC(=O)CN1CCCC1=O ; ERYTHROCYTE COUNT = 5.51 x10E6/uL

Data point: COc1ccc(Cl)cc1C(=O)NCCc1ccc(S(=O)(=O)NC(=O)NC2CCCCC2)cc1 [GLYBURIDE] ; ERYTHROCYTE COUNT = 6.34 x10E6/uL

Data point: Nc1ccc(C(=O)O)c(O)c1 [AMINOSALICYLIC ACID] ; ERYTHROCYTE COUNT = 6.34 x10E6/uL

Data point: O=C(O)CCc1nc(-c2ccccc2)c(-c2ccccc2)o1 [OXAPROZIN] ; ERYTHROCYTE COUNT = 5.76 x10E6/uL

Data point: CN(C)CCOC(c1ccccc1)c1ccccc1.Cn1c(=O)c2[nH]c(Cl)nc2n(C)c1=O [DIMENHYDRINATE] ; ERYTHROCYTE COUNT = 5.45 x10E6/uL

Data point: CC(C)Cc1ccc([C@H](C)C(=O)O)cc1 [DEXIBUPROFEN] ; ERYTHROCYTE COUNT = 6.96 x10E6/uL

Data point: O=C1c2ccccc2C(=O)C1c1ccccc1 [PHENINDIONE] ; ERYTHROCYTE COUNT = 7.15 x10E6/uL

Data point: CC(C)(C#N)c1cc(Cn2cncn2)cc(C(C)(C)C#N)c1 [ANASTROZOLE] ; ERYTHROCYTE COUNT = 5.57 x10E6/uL

Data point: COc1cc(NC(C)CCCN)c2ncccc2c1 (stereo unspecified) [PRIMAQUINE] ; ERYTHROCYTE COUNT = 6.19 x10E6/uL
